- Study system: HLA-A02.01 (human)
- Measurement protocol: pMHC-I complex dissociation at 37 C, 125I-b2m, half-life
- Condition label: remark: other sources report otherwise
Measurement kind: Stability (T1/2 (h))
Use h as the unit, but write only the number.

Give me measured Stability (T1/2 (h)), please, for this binder: IMQLMPFGCL
0.5

Give me measured Stability (T1/2 (h)), please, for this binder: RVAKIADFGM
0.5

Give me measured Stability (T1/2 (h)), please, for this binder: STVQLIMQL
0

Give me measured Stability (T1/2 (h)), please, for this binder: SLLNYLREM
3

Give me measured Stability (T1/2 (h)), please, for this binder: SVCFFFFSV
9.4

Give me measured Stability (T1/2 (h)), please, for this binder: VQLIMQLMPF
0

Give me measured Stability (T1/2 (h)), please, for this binder: QLIMQLMPF
0.3

Give me measured Stability (T1/2 (h)), please, for this binder: YTLDVLERC
6.6

Give me measured Stability (T1/2 (h)), please, for this binder: QLIMQLMPFG
0

Give me measured Stability (T1/2 (h)), please, for this binder: WLHKRGKYI
1.2

Give me measured Stability (T1/2 (h)), please, for this binder: CLTSTVQLIM
0

Give me measured Stability (T1/2 (h)), please, for this binder: IMQLMPFGC
0.4

Give me measured Stability (T1/2 (h)), please, for this binder: MANGSLLNYL
0

Give me measured Stability (T1/2 (h)), please, for this binder: YMANGSLLN
0

Give me measured Stability (T1/2 (h)), please, for this binder: LTINKEEAL
0

Give me measured Stability (T1/2 (h)), please, for this binder: SLPRFILMEL
0.5

Give me measured Stability (T1/2 (h)), please, for this binder: MQLMPFGCL
0.4

Give me measured Stability (T1/2 (h)), please, for this binder: PLYGLLLEML
0

Give me measured Stability (T1/2 (h)), please, for this binder: MQLMPFGCLL
0.4

Give me measured Stability (T1/2 (h)), please, for this binder: LQSLPRFILM
0

Give me measured Stability (T1/2 (h)), please, for this binder: LIMQLMPFG
0
